Molecular target: AxCT mask27 EpCAM H90.2 L043 version 1
Assay Endpoint: Percent cleavage (%)

Protein	Assay Endpoint	Measurement
MMP-1 (protein) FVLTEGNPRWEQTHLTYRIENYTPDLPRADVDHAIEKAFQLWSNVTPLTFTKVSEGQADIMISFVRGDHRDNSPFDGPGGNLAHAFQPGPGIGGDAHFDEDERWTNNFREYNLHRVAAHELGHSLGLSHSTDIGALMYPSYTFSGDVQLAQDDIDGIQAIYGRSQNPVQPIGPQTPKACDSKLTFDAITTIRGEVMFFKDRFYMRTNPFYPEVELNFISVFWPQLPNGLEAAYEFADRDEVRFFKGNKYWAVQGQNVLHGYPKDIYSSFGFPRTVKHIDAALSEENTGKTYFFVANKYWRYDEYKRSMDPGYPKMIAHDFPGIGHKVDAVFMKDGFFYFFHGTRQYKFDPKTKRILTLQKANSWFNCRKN	Percent cleavage	0
Neutrophil Elastase (protein) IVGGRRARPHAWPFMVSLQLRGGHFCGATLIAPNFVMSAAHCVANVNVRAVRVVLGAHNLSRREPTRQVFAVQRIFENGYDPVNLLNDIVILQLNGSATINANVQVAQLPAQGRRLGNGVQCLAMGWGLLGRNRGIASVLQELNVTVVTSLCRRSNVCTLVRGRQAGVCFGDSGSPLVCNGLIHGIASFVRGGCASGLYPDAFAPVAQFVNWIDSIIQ	Percent cleavage	0
Matriptase (protein) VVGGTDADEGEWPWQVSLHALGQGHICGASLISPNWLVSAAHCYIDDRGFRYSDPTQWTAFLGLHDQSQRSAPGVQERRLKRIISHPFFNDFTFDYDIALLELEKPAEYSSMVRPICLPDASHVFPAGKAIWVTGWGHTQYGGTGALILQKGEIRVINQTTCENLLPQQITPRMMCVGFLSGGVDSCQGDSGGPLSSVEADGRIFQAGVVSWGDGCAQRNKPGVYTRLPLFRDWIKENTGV	Percent cleavage	79
MMP-7 (protein) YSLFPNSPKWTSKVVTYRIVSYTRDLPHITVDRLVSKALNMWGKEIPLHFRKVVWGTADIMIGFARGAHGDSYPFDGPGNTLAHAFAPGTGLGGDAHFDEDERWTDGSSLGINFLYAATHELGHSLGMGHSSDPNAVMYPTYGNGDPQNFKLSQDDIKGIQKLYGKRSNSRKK	Percent cleavage	0
Cathepsin G (protein) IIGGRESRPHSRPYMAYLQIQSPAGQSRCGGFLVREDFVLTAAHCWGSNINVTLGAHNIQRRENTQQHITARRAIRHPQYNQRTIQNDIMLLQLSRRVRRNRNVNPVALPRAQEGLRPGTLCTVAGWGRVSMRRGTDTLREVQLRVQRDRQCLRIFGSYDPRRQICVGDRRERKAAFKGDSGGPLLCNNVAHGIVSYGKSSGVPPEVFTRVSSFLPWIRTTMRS	Percent cleavage	0
